Assay: HCT116 colon cancer cell growth inhibition, primary screen, CellTiter-Glo luminescence, NPC library (AID 1117342)
Conditions: at 20 µM (top of the series)
Each record is given 1.0 if its reported inhibition of viability is strictly below 20%. Records at or above 20% are given 0.0.

Check if inhibition of viability falls below 20% for CN1CCN(CCCN2c3ccccc3Sc3ccc(S(=O)(=O)N(C)C)cc32)CC1 .
0.0

Determine if CCOc1ccccc1OCCN[C@H](C)Cc1ccc(OC)c(S(N)(=O)=O)c1 shows inhibition of viability strictly lower than 20%.
1.0

Item CCCC(=O)O[C@]1(C(=O)CO)CC[C@H]2[C@@H]3CCC4=CC(=O)CC[C@]4(C)[C@H]3[C@@H](O)C[C@@]21C : inhibition of viability beneath 20%, strictly?
0.0

Lab log: compare recorded inhibition of viability with 20%; is it strictly lower for Cc1[nH]c(=O)c(C#N)cc1-c1ccc2nccn2c1 ?
1.0

Would you kindly verify if inhibition of viability of NC(=O)CCCCC1CCSS1 (stereo unspecified) is strictly less than 20%?
1.0

State whether 20% exceeds inhibition of viability recorded for O=c1[nH]c(=O)n([C@H]2C[C@H](O)[C@@H](CO)O2)cc1I .
1.0

Please determine if O=c1[nH]c(=O)n([C@H]2C[C@H](O)[C@@H](CO)O2)cc1Br is below 20% in terms of inhibition of viability.
1.0

# strict comparison: is reported inhibition of viability < 20%? input = Cc1ccc(-n2nc(C(C)(C)C)cc2NC(=O)Nc2ccc(OCCN3CCOCC3)c3ccccc23)cc1
0.0

Lab note: confirm whether the reported inhibition of viability for this molecule is below 20%, equality not counting. molecule: Cc1ccc(-c2ncc(Cl)cc2-c2ccc(S(C)(=O)=O)cc2)cn1
1.0

Given CC(C)Nc1cccnc1N1CCN(C(=O)c2cc3cc(NS(C)(=O)=O)ccc3[nH]2)CC1 , is recorded inhibition of viability strictly lower than 20%?
0.0

Problem: For the molecule CC=CC1=C(C(=O)O)N2C(=O)[C@@H](NC(=O)[C@H](N)c3ccc(O)cc3)[C@H]2SC1 , is inhibition of viability under 20%?
0.0

Consider the molecule Cl/C(=C\n1cncn1)c1ccc(Cl)cc1Cl . Is its inhibition of viability strictly less than 20%?
0.0

# strict comparison: is reported inhibition of viability < 20%? input = O=C(O)c1cn(C2CC2)c2cc(N3CCNCC3)c(F)cc2c1=O
1.0

Decide: inhibition of viability of CC(=O)Oc1cc(C(F)(F)F)ccc1C(=O)O strictly below 20%?
1.0

Here's an entry: Cc1cc2c(cc1CC(=O)c1sccc1S(=O)(=O)Nc1onc(C)c1Cl)OCO2 . Is its inhibition of viability below 20%?
0.0

Identify whether the molecule N[C@@H](Cc1c[nH]c2ccc(O)cc12)C(=O)O records inhibition of viability below 20%.
1.0

###

Assay: SU-DIPG-XXV glioma cell viability, MIPE5.0 library, qHTS (AID 1347068);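 as to IC50: cells exposed to compound for 48 hours before viability readout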
Records with an inconclusive call do not appear. Active and inactive are the calls of the source. No cut-off is given here; in the data, nearly all actives have IC50 up to about 30 µM. Where a SMILES comes first, the peptide text is derived from it. [ ]: non-standard residue; d: D form. The star is where a group is joined. Sta = CC(C)C[C@H](N)[C@@H](O)CC(=O)O; Isovaleryl = CC(C)CC(=O)*
Measure: IC50

Worked examples, 5 molecules total:
[[record]]
molecule = "COc1ccc([C@@H]2CC(=O)c3c(O)cc(O[C@@H]4O[C@H](CO[C@@H]5O[C@@H](C)[C@H](O)[C@@H](O)[C@H]5O)[C@@H](O)[C@H](O)[C@H]4O)cc3O2)cc1O"
reported_result = "inactive"

[[record]]
molecule = "CCCCCCCCCCCCCCCCCCCCCCO"
reported_result = "inactive"

[[record]]
molecule = "CC(C)C[C@H](NC(=O)[C@H](Cc1ccccc1)NC(=O)c1cnccn1)B(O)O"
reported_result = "0.0263 µM (active)"

[[record]]
molecule = "CC1=C(/C=C/C(C)=C/C=C/C(C)=C\\C(=O)O)C(C)(C)CCC1"
reported_result = "inactive"

[[record]]
molecule = "COC(=O)C1=C(C)NC(C)=C(C(=O)OCCCN2CCC(c3ccccc3)(c3ccccc3)CC2)C1c1cccc([N+](=O)[O-])c1 (stereo not drawn)"
reported_result = "7.42 µM (active)"


Supply IC50 value. Item: C[C@]12CC[C@@H]3c4ccc(O)cc4C[C@@H](CCCCCCCCCS(=O)CCCC(F)(F)C(F)(F)F)[C@H]3[C@@H]1CC[C@@H]2O (stereo partly drawn)
inactive

Specify reported IC50 for the molecule shown: CC(C)CC(=O)N[C@H](C(=O)N[C@H](C(=O)N[C@@H](CC(C)C)[C@@H](O)CC(=O)N[C@@H](C)C(=O)N[C@@H](CC(C)C)[C@@H](O)CC(=O)O)C(C)C)C(C)C (Isovaleryl-VV[Sta]A[Sta]-OH)
inactive

Please report the measured IC50 for O=C(O)c1cccc(-c2noc(-c3ccccc3F)n2)c1
inactive
